target.desc: Cdk4/CyclinD1 (Homo sapiens (Human), UniProt P11802)
Sequence (P11802 whole entry): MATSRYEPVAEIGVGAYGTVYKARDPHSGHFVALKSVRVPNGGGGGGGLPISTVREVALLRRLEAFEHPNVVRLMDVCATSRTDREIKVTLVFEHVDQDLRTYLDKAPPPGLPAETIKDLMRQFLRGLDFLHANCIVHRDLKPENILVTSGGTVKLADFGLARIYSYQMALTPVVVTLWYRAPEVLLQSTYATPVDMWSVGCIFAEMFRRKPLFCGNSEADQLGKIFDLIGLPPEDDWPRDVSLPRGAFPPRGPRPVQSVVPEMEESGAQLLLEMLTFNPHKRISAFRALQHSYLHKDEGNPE
Sequence (P24385 whole entry partner): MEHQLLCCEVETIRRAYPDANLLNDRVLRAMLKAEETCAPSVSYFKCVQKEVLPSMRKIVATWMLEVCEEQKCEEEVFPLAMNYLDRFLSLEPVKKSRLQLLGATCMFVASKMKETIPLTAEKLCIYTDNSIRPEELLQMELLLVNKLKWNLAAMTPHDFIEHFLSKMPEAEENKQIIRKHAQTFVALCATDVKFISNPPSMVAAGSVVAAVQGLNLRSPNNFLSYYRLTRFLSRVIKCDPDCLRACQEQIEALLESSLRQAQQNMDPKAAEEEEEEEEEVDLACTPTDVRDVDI
assay.explanation: Cdk4 kinase inhibition assay with recombinant Cdk4/CyclinD1, Rb substrate, [33P]-ATP filter plate
condition.label: 25 μM ATP, read-out: Cdk 4 IC50
Binary label based on IC50 with cut-off 70 nM: below gives 1.0, not below gives 0.0.

- smiles.entry: "c1cc2c3cnc(Nc4ccc(N5CCOCC5)nn4)nc3n(C3CCCC3)c2cn1"
  classification: 1.0
- smiles.entry: "CN(C)C1CCN(c2ccc(Nc3ncc4c5ccncc5n(CCCO)c4n3)nc2)CC1"
  classification: 0.0
- smiles.entry: "O=C(c1ccc(Nc2ncc3c4ccnc(O)c4n(C4CCCC4)c3n2)nc1)N1CCNCC1"
  classification: 1.0
- smiles.entry: "C[C@H](CO)n1c2cnccc2c2cnc(Nc3ccc(N4CCNC(C)(C)C4)cn3)nc21"
  classification: 1.0
- smiles.entry: "C[C@@H](O)Cn1c2cnccc2c2cnc(Nc3ccc(N4CC[C@@H](O)C4)cn3)nc21"
  classification: 0.0
- smiles.entry: "CC1(C)CN(c2ccc(Nc3ncc4c5ccncc5n([C@H]5CCC[C@H]5O)c4n3)nn2)CCN1"
  classification: 0.0
- smiles.entry: "CC[C@@H](C)n1c2cnccc2c2cnc(Nc3ccc(N4CCC(NC)CC4)cn3)nc21"
  classification: 1.0
- smiles.entry: "CC[C@H](C)n1c2cnccc2c2cnc(Nc3ccc(N4CCC(N(C)C)CC4)cn3)nc21"
  classification: 0.0
- smiles.entry: "COc1ccc2c3cnc(Nc4ccc(N5CCNCC5)cn4)nc3n(C3CCCC3)c2n1"
  classification: 0.0
- smiles.entry: "c1cc2c3cnc(Nc4cnc(N5CCNCC5)nc4)nc3n(C3CCCC3)c2cn1"
  classification: 1.0
- smiles.entry: "CC(C)(CO)Cn1c2cnccc2c2cnc(Nc3ccc(N4CCNCC4)cn3)nc21"
  classification: 0.0
- smiles.entry: "CC1(C)CN(c2ccc(Nc3ncc4c5ccncc5n([C@@H]5CCOC5)c4n3)nn2)CCN1"
  classification: 1.0
- smiles.entry: "CN(C)C1CCN(c2ccc(Nc3ncc4c5ccncc5n([C@H]5CC[C@H](O)CC5)c4n3)nn2)CC1"
  classification: 0.0
- smiles.entry: "c1cnc2c(c1)c1cnc(Nc3ccc(N4CCNCC4)cc3)nc1n2C1CCCC1"
  classification: 1.0
- smiles.entry: "NC1CCN(c2ccc(Nc3ncc4c5ccncc5n(C5CCCC5)c4n3)nn2)CC1"
  classification: 1.0
- smiles.entry: "O=S1(=O)CC=C(c2ccc(Nc3ncc4c5ccnc(F)c5n(C5CCCC5)c4n3)nc2)CC1"
  classification: 1.0
- smiles.entry: "C[C@@H]1CN(c2ccc(Nc3ncc4c5ccncc5n(C5CCCC5)c4n3)nn2)CCN1"
  classification: 1.0

###

target.desc: Cdk4/CyclinD1 (Homo sapiens (Human))
assay.explanation: Cdk4 kinase inhibition assay with recombinant Cdk4/CyclinD1, Rb substrate, [33P]-ATP filter plate
condition.label: 25 μM ATP, read-out: Cdk 4 IC50
pIC50: −log10 of the molar value.
Parameter: pIC50. Scope: all listed entries.
recorded.metric: pIC50

- molecule: "Fc1ccc(-n2c3cnccc3c3cnc(Nc4ccc(N5CCNCC5)cn4)nc32)cc1"
  recorded.metric: "pIC50"
  recorded.measurement: 8.12
- molecule: "COc1nccc2c3cnc(Nc4ccc(N5CCNCC5)cn4)nc3n(C3CCC(C)(C)CC3)c12"
  recorded.metric: "pIC50"
  recorded.measurement: 8.00
- molecule: "O[C@@H]1CCCN(C2CCN(c3ccc(Nc4ncc5c6ccncc6n(C6CCCC6)c5n4)nn3)CC2)C1"
  recorded.metric: "pIC50"
  recorded.measurement: 7.89
- molecule: "C[C@@H](O)Cn1c2cnccc2c2cnc(Nc3ccc(N4CCC(N(C)C)CC4)nn3)nc21"
  recorded.metric: "pIC50"
  recorded.measurement: 6.57
- molecule: "OCCNC1CCN(c2ccc(Nc3ncc4c5ccncc5n(C5CCCC5)c4n3)nc2)CC1"
  recorded.metric: "pIC50"
  recorded.measurement: 8.32
- molecule: "CC[C@H](C)n1c2cnccc2c2cnc(Nc3ccc(N4CCN[C@@H](C)C4)cn3)nc21"
  recorded.metric: "pIC50"
  recorded.measurement: 6.30
- molecule: "CC1CCN(c2ccc(Nc3ncc4c5ccncc5n(C5CCCC5)c4n3)nc2)C1 (centres unmarked)"
  recorded.metric: "pIC50"
  recorded.measurement: 7.25
- molecule: "CC1CCC(n2c3cnccc3c3cnc(Nc4ccc(N5CCNCC5)cn4)nc32)CC1 (centres unmarked)"
  recorded.metric: "pIC50"
  recorded.measurement: 8.92

Measured values drawn from patent US8841312B2 for this set.
